system name: T1, CBD-toxin A-Fc (Clostridium difficile, UniProt P16154 1848-2710)
T1 construct: also called CBD-A; C-term Toxin A
assay info: SPR Biacore, CBD-A-Fc captured, 500 nM mAb flowed
quantity name: binding (RU)
Give bare numbers, in RU.

| binder | scale unit | recorded number |
| --- | --- | --- |
| H2M3121N (antibody, V domains shown, also called H2aM3121N; H1M3121N) VH: EVQLVESGGDLVQPGGSLRLSCAASGVTFRTYEMNWVRQAPGKGLEWISHISSSGDIIYYTKSVKGRFTISRDNAKNSLFLQMTSLRAEDTAVYYCARERYSQYGYYYFGMDVWGQGTTVTVSS VL: DIQMTQSPSTLSASIGDRVTITCRASQNTDKWMAWYQQKAGKAPKLLIYKASILESGVPSRFSGSGSGTEFTLTISSLQPDDFATYYCQEYNTYFRAFGQGTKVETR | RU | 23 |

Dear colleague, could you send me binding (RU) for each of the items below? Thanks.
1. H2M3124N (antibody, V domains shown, also called H2aM3124N; H1M3124N) VH: EIQLIESGGDMVQPGGSLRLSCAASGISLNSYEMNWVRQTPGMGLEWISHISSSGTSIYYANSVKGRFTIFRDSAKNSLLLQMNSLRAEDTAIYYCARERYDHSGYYYLGMDVWGLGTTVTVSS VL: DIQMTQSPSTLSASLGDRVTITCRASQNIDNWMAWYQQKVGKAPKLLIYRASTLETGVPSRFGGSGFGTEFTLTISSLQPGDFATYYCQEYNSYFRTFGQGTKVEIK
2. H1H3354P (antibody, V domains shown) VH: QVQLQQSGPGLVKPSQTLSLTCAISGDSVSSNSAAWNWIRQSPSRGLEWLGRTYYRSKWYHDYAFSVKSRILINPDTSKNLFSLQVNSVTPEDTAVYYCARDRRSYFDYWGQGTLVTVSS VL: EIVLTQSPATLSLSPGERATLSCRASRSVSSSLAWYQQKPGQAPRLLIYDASNRATGIPARFSGGGSGTDFTLTISSLEPEDFAVYYCQQRNNWPPTFGQGTKLEIKR

1: 29; 2: -2
